# system_under_test: UniProtKB P29477
# Sequence (P29477 whole entry): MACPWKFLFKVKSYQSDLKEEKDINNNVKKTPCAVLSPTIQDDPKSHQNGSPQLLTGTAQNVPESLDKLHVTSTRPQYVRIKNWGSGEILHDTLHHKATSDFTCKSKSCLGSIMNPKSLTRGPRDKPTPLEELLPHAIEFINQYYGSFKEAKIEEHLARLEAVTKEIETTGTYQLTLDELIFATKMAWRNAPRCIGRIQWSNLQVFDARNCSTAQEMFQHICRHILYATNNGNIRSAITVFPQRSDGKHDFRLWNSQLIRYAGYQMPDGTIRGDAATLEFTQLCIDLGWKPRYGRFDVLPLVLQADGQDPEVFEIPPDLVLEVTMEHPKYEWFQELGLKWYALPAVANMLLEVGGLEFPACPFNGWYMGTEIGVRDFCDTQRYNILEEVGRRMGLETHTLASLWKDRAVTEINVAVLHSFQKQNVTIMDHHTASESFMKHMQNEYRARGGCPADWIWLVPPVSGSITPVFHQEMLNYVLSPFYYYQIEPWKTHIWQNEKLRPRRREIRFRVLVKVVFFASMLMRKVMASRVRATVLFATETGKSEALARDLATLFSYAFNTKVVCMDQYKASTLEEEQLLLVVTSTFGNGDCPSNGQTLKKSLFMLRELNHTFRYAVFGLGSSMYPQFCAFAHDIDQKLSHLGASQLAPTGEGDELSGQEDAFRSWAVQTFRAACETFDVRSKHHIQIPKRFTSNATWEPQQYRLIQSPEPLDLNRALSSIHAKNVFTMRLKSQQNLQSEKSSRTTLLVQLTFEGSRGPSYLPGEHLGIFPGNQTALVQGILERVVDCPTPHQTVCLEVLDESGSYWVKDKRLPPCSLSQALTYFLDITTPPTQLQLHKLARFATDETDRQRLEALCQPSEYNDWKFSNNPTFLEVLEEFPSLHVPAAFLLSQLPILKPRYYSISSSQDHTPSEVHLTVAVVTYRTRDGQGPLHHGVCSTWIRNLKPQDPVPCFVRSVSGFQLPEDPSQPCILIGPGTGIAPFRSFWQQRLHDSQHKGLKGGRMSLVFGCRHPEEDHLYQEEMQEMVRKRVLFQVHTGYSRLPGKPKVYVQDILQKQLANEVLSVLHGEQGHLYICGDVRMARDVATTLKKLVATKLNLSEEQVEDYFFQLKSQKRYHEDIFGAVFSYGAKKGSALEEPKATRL
# test_method_notes: Inhibition of iNOS in mouse RAW264.7 cells assessed as inhibition of LPS-induced nitric oxide production for 2 hrs by DAF-FMDA dye based fluorometric assay
# Type: cell-based
quantity_kind: IC50 (µM)
Give your result in µM as a bare value.

Below are worked cases with known answers.
COc1ccc(/C=C/C(=O)c2ccc3c(c2O)C=CC(C)(C)O3)cc1OC	7.9
CC1(C)C=Cc2c(ccc(C(=O)/C=C/c3cccc(F)c3)c2O)O1	5.4
CC1(C)C=Cc2c(ccc(C(=O)/C=C/c3ccc(Br)cc3)c2O)O1	17.8
COc1cc(/C=C/C(=O)c2ccc3c(c2O)C=CC(C)(C)O3)cc(OC)c1OC	6.2

Briefly, IC50 measured for COc1ccc2c(c1)c(CC(=O)O)c(C)n2C(=O)c1ccc(Cl)cc1 [INDOMETHACIN] : 20
